test system: Echinochloa crus-galli (ECHCG); assay: Post-emergence efficacy, glasshouse spray test; format: in vivo; settings: Echinochloa crus-galli, post-emergence, 312 h; application rate 500 g/Ha; evaluated after 13 days; read-out: Control of weed species ECHCG after post-emergence application (100=total damage to plant; 0=no damage to plant)
EXPERIMENTAL ENDPOINT: pest or weed control at 500 g/ha (%)
Dear colleague, please return just the value in %, with no unit written.

Use these answered entries as a reference point.
{"columns": ["COMPOUND STRING", "ASSAY SYSTEM", "UNITS", "pest or weed control at 500 g/ha"],
 "data": [
  ["CN(C)C(=O)c1ccc2n[n+](CCS(=O)(=O)[O-])ccc2c1", "Echinochloa crus-galli (ECHCG)", "%", 60],
  ["C[C@@H](CNS(=O)(=O)[O-])[n+]1ccc2ccccc2n1", "Echinochloa crus-galli (ECHCG)", "%", 20]
]}

Field: next molecule
// fetch Echinochloa crus-galli (ECHCG) pest or weed control at 500 g/ha for O=S(=O)([O-])CCC[n+]1cc(C(Cl)(Cl)Cl)c2ccccc2n1
30
